Cited source: PubChem BioAssay (NCI)

test system: MDA-MB-468 breast; test: NCI-60 one-dose screen, 48 h (100 = growth as untreated, 0 = no growth, -100 = all killed); conditions: 10 µM unless noted
The panel holds about 83,000 compounds, 20% with a hit somewhere; the sample as a whole holds those more often.
MEASURED_ENDPOINT: growth (%)
Form entry: value (%) — number only.

Known growth results, listed for orientation:
COMPOUND	growth (%)
Nc1ncn([C@@H]2O[C@H](CO)[C@@H](O)[C@H]2O)c(=O)n1	33.2
CCOC(=O)C1=C(C)n2nc(CC#N)c(C#N)c2NC1c1ccc(Cl)cc1 (stereo not drawn)	117
COc1ccc(-c2cc(-c3cc(OC)ccc3OC)nc(SCC(=O)c3ccccc3)c2C#N)cc1	106

Ask: For the compound "Cc1ccc(NSc2ccccc2[N+](=O)[O-])cc1" , what growth is on record?
Reply: 17.6

Ask: I'd like to know its growth. The compound in question is "COc1cc(CC#N)c([N+](=O)[O-])cc1OC"
Reply: 100

Ask: Give its growth value. Item: "Nc1c(C(=O)Nc2ccc(Cl)cc2)cc(-c2nc3ccccc3s2)c(=O)n1NS(=O)(=O)c1ccc(Cl)cc1"
Reply: 110

Ask: # get_value(readout='growth', item= "O=C(O)c1ccccc1Nc1cccc(S(F)(F)(F)(F)F)c1" )
Reply: 111

Ask: # query: growth of entry "CN(C)CCC(=O)Nc1ccc(-n2cc(-c3cccc(NC(=S)Nc4cccc(-c5cn(-c6ccc(NC(=O)CCN(C)C)cc6)nn5)c4)c3)nn2)cc1"
Reply: -9.56

Ask: Name the reported growth value associated with the compound "CC(=O)O[C@H]1CC[C@]2(C)[C@H]3CC=C4[C@@H]5[C@H](C)[C@@H](C)CC[C@]5(C(=O)NCCNCCNCCN)CC[C@@]4(C)[C@]3(C)CC[C@H]2C1(C)C"
Reply: 69.2

Ask: What value of measured growth is listed for CC(=O)Oc1c(C)c(OC(C)=O)c2c(c1C(C)=O)OC1CC(=O)C(C(C)=O)=C(O)C21C (stereo not drawn) ?
Reply: 90.1

Ask: growth lookup needed for CCN(CC)c1ccc2c(c1)Oc1nc(N)c(C#N)c(N)c1C2Sc1ccc(SC)cc1 (stereo not drawn) , thanks.
Reply: -37.4

Ask: I am curious: what growth value has been reported for "O=C1c2ccccc2-c2ccccc2C1(Cl)Cl" ?
Reply: -86.6

Ask: Item under review: "CO/N=C(/C)c1ccc(NC(=O)CSc2nnc(-c3ccncc3)n2-c2ccccc2)cc1" . Reported growth?
Reply: 50.8
